Test system: LOX IMVI
method.notes: NCI tumour cell line growth inhibition, 48 h
Activity calls are given as the source filed them. Rule as the data show it: active = GI50 up to about 1.1 µM and inactive = higher.
property.measured: GI50

See these solved cases before continuing.
substance.smiles: Cc1ccc(S(=O)(=O)N2CCCCN(S(=O)(=O)c3ccc(C)cc3)Cc3ccccc3OCCOCCOc3c4cccc3Cc3cccc5c3OCCOCCOc3ccccc3CN(S(=O)(=O)c3ccc(C)cc3)CCCN(S(=O)(=O)c3ccc(C)cc3)Cc3ccccc3OCCOCCOc3c(cccc3C4)Cc3cccc(c3OCCOCCOc3ccccc3C2)C5)cc1
property.measured: GI50
measured.result: > 100 µM (inactive)
//
substance.smiles: C/C(CC(O)(C(F)(F)Cl)C(F)(F)Cl)=N\Nc1ccccc1
property.measured: GI50
measured.result: 27.5 µM (inactive)

Could you now consider this next compound?
Which value of GI50 has been reported for "CCOC(=O)/C(C#N)=N\Nc1ccc(-n2c(C)nc3ccccc3c2=O)cc1" in the records? 66.2 µM (inactive)

====

Test system: MCF7
method.notes: NCI tumour cell line growth inhibition, 48 h
Calls of active or inactive are those of the source. Rule as the data show it: active = GI50 up to about 1.1 µM and inactive = higher.
Select the matching outcome among active, inactive

molecule: Cc1cccc2cc3ccc4ccccc4c3cc12
class: inactive
//
molecule: [N-]=[N+]=C(C(=O)CN1CCCC1=O)S(=O)(=O)c1ccccc1
class: inactive
//
molecule: C[S+](C)CC(=O)c1ccc2c(c1)Sc1ccccc1O2
class: inactive
//
molecule: Cn1c2ccc3cc2c(=S)c2cc(ccc21)OCCOCCOCCOCCOCCOCCO3
class: inactive

What was the test verdict on "Cc1ccc2c(c1)c1ccc3c(c1n2C)C(=O)C=CC3=O" ? inactive

What was the test verdict on "COc1ccc2c(c1)c(=O)c1c(NCCCN(C)C)ccc3ncn2c31" ? active

What was the test verdict on COc1ccc(C2C(C#N)=C(S)N(C3OC(COC(C)=O)C(OC(C)=O)C(OC(C)=O)C3OC(C)=O)C(c3ccccc3)=C2C(C)=O)cc1 (centres undefined) ? inactive

What was the test verdict on "CCSCCCN(CCCSCC)CCCSCC" ? inactive

What was the test verdict on O=C(O)C1CCCN1C(=O)c1cc(Cl)ccn1 (centres undefined) ? inactive

What was the test verdict on "O=c1[nH]nc(-c2ccccc2)n1/N=C/c1cccc([N+](=O)[O-])c1" ? inactive

What was the test verdict on Cn1c2ccccc2c(=O)c2cccc(C(=O)NC(CCCNC(=N)N)C(=O)O)c21 (centres undefined) ? inactive

What was the test verdict on "Cc1[nH]c(-c2ccccc2)c(O)c1C(=O)OC12CC3CC(CC(C3)C1)C2" ? inactive

====

System: SK-MEL-5
method.notes: NCI tumour cell line growth inhibition, 48 h
Activity calls are given as the source filed them. Rule as the data show it: active = GI50 up to about 1.1 µM and inactive = higher.
Select the matching outcome among active, inactive

What was the test verdict on "CCOC(=O)CN(Cc1ccccc1)Cc1c(C(=O)c2ccccc2)c2ccccc2n1C(=O)c1ccccc1" ? inactive

What was the test verdict on C[C@@]1(O)C2C3CC4C5C3C1[C@](O)(C42)[C@H]5Br (stereo not given in full) ? inactive

====

Overview of recorded GI50 for various compounds
Test system: BT-549
method.notes: NCI tumour cell line growth inhibition, 48 h
Active and inactive are the calls of the source. No stated cut-off is given here; in the data, active = GI50 up to about 1.1 µM and inactive = higher.

Which value of GI50 has been reported for "COc1c(O)ccc(C2=Cc3ccc(O)cc3OC2)c1OC" in the records? 23.6 µM (inactive)

Which value of GI50 has been reported for COC1CC(N)(c2ccccc2)C(O)C(C)O1 (stereo not drawn) in the records? > 100 µM (inactive)

Which value of GI50 has been reported for "COc1cc(Nc2nc3ccccc3n3cccc23)cc(OC)c1OC" in the records? 68.9 µM (inactive)
